Source: ChEMBL document CHEMBL1129142

Test: [Ca2+] antagonistic activity was measured with isolated depolarized guinea pig taenia cecum.(test 2)
Assay type: functional, tissue-based, Cavia porcellus, Caecum
pIC50: −log10 of the molar value.
experimental.endpoint: pIC50

[A] COc1ccc(OCCCN(C)CCOc2cccc(N=[N+]=[N-])c2)c(C2Sc3ccccc3N(C)C2=O)c1 (configuration not stated)
[B] COc1ccc(OCCCN(C)CCOc2ccc3c(c2)OCO3)c([C@H]2Sc3ccccc3N(C)C2=O)c1
Between A and B , whose measured pIC50 reads higher? Reply with the label of the item you choose.
B

###

Assay: [Ca2+] antagonistic activity was measured with isolated depolarized guinea pig taenia cecum.(test 1)
Assay type: functional, tissue-based, Cavia porcellus, Caecum
experimental.endpoint: IC50 (nM)

[1] COc1ccc(OCCCN(C)CCOc2ccc3c(c2)OCO3)c([C@H]2Sc3ccccc3N(C)C2=O)c1
[2] COc1ccc(OCCCN(C)CCOc2cccc(N=[N+]=[N-])c2)c(C2Sc3ccccc3N(C)C2=O)c1 (configuration not stated)
Select one. Lower IC50: 1 or 2 Reply with the label of the item you choose.
1
